Just for reference, paper PMC8151276 is where these values come from.

target: NPSR1 (Homo sapiens); construct: purchased Promega (in-house HiBiT-GPCR construct library, NanoBRET); experiment: NanoBRET screen HiBiT-NPSR1 in HEK293; format: binding; details: NPSR1; tracer 1μM
Sequence (Q6W5P4 whole entry): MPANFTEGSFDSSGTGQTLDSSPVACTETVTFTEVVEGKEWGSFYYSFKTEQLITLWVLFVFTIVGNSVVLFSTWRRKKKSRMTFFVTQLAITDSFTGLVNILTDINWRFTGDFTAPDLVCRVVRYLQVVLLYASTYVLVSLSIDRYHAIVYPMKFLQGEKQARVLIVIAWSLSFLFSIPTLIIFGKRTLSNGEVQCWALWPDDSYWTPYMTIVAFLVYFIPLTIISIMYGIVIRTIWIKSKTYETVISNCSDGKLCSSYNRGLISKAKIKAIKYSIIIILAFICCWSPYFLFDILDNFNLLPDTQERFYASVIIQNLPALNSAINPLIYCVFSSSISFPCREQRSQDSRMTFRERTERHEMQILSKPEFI
ASSAY_ENDPOINT: NanoBRET Fold Response
Just the number.

Record excerpt, results attached:
// NanoBRET Fold Response lookup, key: `Cc1cc2c(s1)Nc1ccccc1N=C2N1CCN(CCCNC(=O)CCOCCOCCOCCOCCNC(=O)CCc2ccc3n2[B-](F)(F)[N+]2=C(c4ccc[nH]4)C=CC2=C3)CC1`
1.17

// query: Cc1nc2n(c(=O)c1CCN1CCC(c3noc4cc(F)ccc34)CC1)CCCC2OC(=O)NCCOCCOCCOCCOCCNC(=O)CCc1ccc2n1[B-](F)(F)[N+]1=C(c3ccc[nH]3)C=CC1=C2 (stereo not drawn)
0.90

***
// NanoBRET Fold Response lookup, key: `COc1ccccc1N1CCN(CCCCN2C(=O)c3ccc(CNC(=O)CCOCCOCCOCCOCCNC(=O)CCc4ccc5n4[B-](F)(F)[N+]4=C(c6ccc[nH]6)C=CC4=C5)cc3C2=O)CC1`
0.93
